# target-of-assay: HIV Env of isolate REJO4541.67 (clade B) (HIV)
# test-protocol: cell-based or functional assay
observation-type: IC50 (µg/ml) with constrains (µg/mL)
One number for each entry, in µg/mL.

Prompt line: Using the record for ePGDM9 (antibody, V domains shown) VH: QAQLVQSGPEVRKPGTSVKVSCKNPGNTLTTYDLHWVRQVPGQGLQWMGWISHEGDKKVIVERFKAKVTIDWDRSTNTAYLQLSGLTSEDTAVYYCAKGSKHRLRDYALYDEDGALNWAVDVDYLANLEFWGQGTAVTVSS VL: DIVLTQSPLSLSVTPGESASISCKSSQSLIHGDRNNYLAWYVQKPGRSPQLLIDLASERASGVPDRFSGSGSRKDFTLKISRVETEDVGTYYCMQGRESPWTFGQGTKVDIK , report its IC50 (µg/ml) with constrains.
Response line: 0.001
